Consider the following compounds and their measured inhibition of growth at 10 µM readings.
System: SK-MEL-2
MEASUREMENT DESCRIPTION: Growth inhibition of human SK-MEL-2 cells at 10 uM incubated for 48 hrs by sulforhodamine B assay relative to control
Assay type: functional
MEASUREMENT PARAMETERS: read-out: GI
Numeric answer only, unit % assumed.

COc1ccc(NCC(=O)Nc2ccc(-c3nc4ccccc4s3)cc2)cc1 -15.7

-- ask Consider the compound O=C(Cn1nnc2ccccc21)Nc1ccc(-c2nc3ccccc3s2)cc1 and give its measured inhibition of growth at 10 µM.
-- reply -0.54

-- ask Give the measured inhibition of growth at 10 µM of O=C(Cn1c2ccccc2c2ccccc21)Nc1ccc(-c2nc3ccccc3s2)cc1 .
-- reply -0.88

----------
// reported pIC50 per item
TARGET DESC: Monoglyceride lipase (Homo sapiens)
Sequence (Q99685 whole entry): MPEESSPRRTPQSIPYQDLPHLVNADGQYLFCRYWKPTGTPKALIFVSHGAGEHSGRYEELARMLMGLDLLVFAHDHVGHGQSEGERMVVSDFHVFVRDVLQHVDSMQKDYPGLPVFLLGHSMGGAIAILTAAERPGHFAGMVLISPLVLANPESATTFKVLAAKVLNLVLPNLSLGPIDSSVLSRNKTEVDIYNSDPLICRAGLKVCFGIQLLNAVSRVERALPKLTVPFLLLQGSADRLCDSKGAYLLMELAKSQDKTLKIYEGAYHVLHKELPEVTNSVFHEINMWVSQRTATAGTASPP
MEASUREMENT DESCRIPTION: Inhibition of human MAGL using 4-Nitrophenylacetate as substrate
pIC50: −log10 of the molar value.

O=C(CN1C(=O)C(=O)c2ccccc21)Nc1ccc(-c2nc3ccccc3s2)cc1 < 4.00
O=C(CN(c1ccccc1)c1ccccc1)Nc1ccc(-c2nc3ccccc3s2)cc1 < 4.00
O=C(Cn1c2ccccc2c2ccccc21)Nc1ccc(-c2nc3ccccc3s2)cc1 < 4.00
O=C(CNc1ccc([N+](=O)[O-])cc1)Nc1ccc(-c2nc3ccccc3s2)cc1 < 4.00

Turning now to a further record.
-- ask Query the reported pIC50 for Monoglyceride lipase (Homo sapiens); item: COc1nn(-c2ccc(NC(=O)OCc3ccccc3)c(C)c2)c(=O)o1
-- reply 6.37

----------
Here, each record is paired with measured inhibition of growth at 10 µM data.
Tested on: CAKI-1
MEASUREMENT DESCRIPTION: Growth inhibition of human CAKI-1 cells at 10 uM incubated for 48 hrs by sulforhodamine B assay relative to control
Type: functional
MEASUREMENT PARAMETERS: read-out: GI
Please give a number only; it is taken to be in %.

Please review the following examples before continuing.
O=C(Cn1cnc2ccccc21)Nc1ccc(-c2nc3ccccc3s2)cc1 38.1
O=C(Cn1cncn1)Nc1ccc(-c2nc3ccccc3s2)cc1 6.2
O=C(CNc1ccc(Cl)cc1)Nc1ccc(-c2nc3ccccc3s2)cc1 79.8
O=C(CNc1c(Cl)cccc1Cl)Nc1ccc(-c2nc3ccccc3s2)cc1 71.2
O=C(Cn1nnc2ccccc21)Nc1ccc(-c2nc3ccccc3s2)cc1 14.5
Cc1cc(NCC(=O)Nc2ccc(-c3nc4ccccc4s3)cc2)no1 -3.5

-- ask Quick one: inhibition of growth at 10 µM of O=C(CNc1ccccc1)Nc1ccc(-c2nc3ccccc3s2)cc1 ?
-- reply 1.16

-- ask Give its inhibition of growth at 10 µM value. Item: O=C(Cn1ccnc1)Nc1ccc(-c2nc3ccccc3s2)cc1
-- reply 33.8

-- ask Given the compound O=C(Cn1ccc2ccccc21)Nc1ccc(-c2nc3ccccc3s2)cc1 , what is its reported inhibition of growth at 10 µM?
-- reply -0.29

-- ask For Cc1cc(C)n(CC(=O)Nc2ccc(-c3nc4ccccc4s3)cc2)n1 , what is its reported inhibition of growth at 10 µM?
-- reply -1.54

-- ask Item O=C(CNCc1ccccc1)Nc1ccc(-c2nc3ccccc3s2)cc1 has what recorded inhibition of growth at 10 µM?
-- reply 9.29

-- ask Value lookup for inhibition of growth at 10 µM; key = O=C(CNc1nnc(-c2ccc(Cl)cc2)o1)Nc1ccc(-c2nc3ccccc3s2)cc1
-- reply -0.31

-- ask Suppose we examine the compound COc1ccc(NCC(=O)Nc2ccc(-c3nc4ccccc4s3)cc2)cc1 ; what inhibition of growth at 10 µM value has been reported?
-- reply -2.81

-- ask Fill in: inhibition of growth at 10 µM of O=C(CN1C(=O)C(=O)c2ccccc21)Nc1ccc(-c2nc3ccccc3s2)cc1 is ___
-- reply -1.81

-- ask Name the reported inhibition of growth at 10 µM value associated with the compound O=C(CN1CCOCC1)Nc1ccc(-c2nc3ccccc3s2)cc1
-- reply 0.31

-- ask For O=C(CNc1nc(-c2ccc(Cl)cc2)cs1)Nc1ccc(-c2nc3ccccc3s2)cc1 , what is its reported inhibition of growth at 10 µM?
-- reply 5.79

-- ask Entry O=C(Cn1c2ccccc2c2ccccc21)Nc1ccc(-c2nc3ccccc3s2)cc1 has what inhibition of growth at 10 µM?
-- reply 1.03

-- ask Which inhibition of growth at 10 µM is listed for O=C(CNC1CCCCC1)Nc1ccc(-c2nc3ccccc3s2)cc1 ?
-- reply 14

-- ask Reported inhibition of growth at 10 µM, compound O=C(CN1CCCCC1)Nc1ccc(-c2nc3ccccc3s2)cc1 : ____
-- reply 9.3

-- ask // query inhibition of growth at 10 µM value for entry NS(=O)(=O)c1ccc(NCC(=O)Nc2ccc(-c3nc4ccccc4s3)cc2)cc1
-- reply 7.14

-- ask # inhibition of growth at 10 µM lookup, item O=C(CN(c1ccccc1)c1ccccc1)Nc1ccc(-c2nc3ccccc3s2)cc1
-- reply 0.37

-- ask Give the measured inhibition of growth at 10 µM of Cc1ccc(NCC(=O)Nc2ccc(-c3nc4ccccc4s3)cc2)cc1 .
-- reply 0.82

-- ask Please give the measured inhibition of growth at 10 µM for this compound: CN1CCN(CC(=O)Nc2ccc(-c3nc4ccccc4s3)cc2)CC1
-- reply 26.5

-- ask Would you mind telling me what inhibition of growth at 10 µM value was observed for O=C(CNc1nc2ccccc2s1)Nc1ccc(-c2nc3ccccc3s2)cc1 ?
-- reply -0.18

----------
Test system: Malme-3M
MEASUREMENT DESCRIPTION: Growth inhibition of human Malme-3M cells at 10 uM incubated for 48 hrs by sulforhodamine B assay relative to control
Assay type: functional
MEASUREMENT PARAMETERS: read-out: GI
Reported inhibition of growth at 10 µM values for a set of molecules
Field format: number, assumed %, no unit text.

Some molecules with known inhibition of growth at 10 µM results, for comparison:
O=C(CNc1c(Cl)cccc1Cl)Nc1ccc(-c2nc3ccccc3s2)cc1 150
O=C(Cn1cncn1)Nc1ccc(-c2nc3ccccc3s2)cc1 -0.27
O=C(CNc1nc2ccccc2s1)Nc1ccc(-c2nc3ccccc3s2)cc1 1.87
Cc1cc(C)n(CC(=O)Nc2ccc(-c3nc4ccccc4s3)cc2)n1 -7.85
O=C(CN(c1ccccc1)c1ccccc1)Nc1ccc(-c2nc3ccccc3s2)cc1 -3.98

-- ask Entry CN1CCN(CC(=O)Nc2ccc(-c3nc4ccccc4s3)cc2)CC1 has what inhibition of growth at 10 µM?
-- reply 1.71

-- ask Which inhibition of growth at 10 µM is listed for O=C(CNc1nnc(-c2ccc(Cl)cc2)o1)Nc1ccc(-c2nc3ccccc3s2)cc1 ?
-- reply 11.3

-- ask Which inhibition of growth at 10 µM value belongs to O=C(Cn1c2ccccc2c2ccccc21)Nc1ccc(-c2nc3ccccc3s2)cc1 ?
-- reply 6.83

-- ask Which inhibition of growth at 10 µM value is on record for O=C(CNc1nc(-c2ccc(Cl)cc2)cs1)Nc1ccc(-c2nc3ccccc3s2)cc1 ?
-- reply -1.86

-- ask Entry O=C(Cn1nnc2ccccc21)Nc1ccc(-c2nc3ccccc3s2)cc1 has what inhibition of growth at 10 µM?
-- reply 3.07

----------
System: HOP-62
MEASUREMENT DESCRIPTION: Growth inhibition of human HOP-62 cells at 10 uM incubated for 48 hrs by sulforhodamine B assay relative to control
Assay type: functional
MEASUREMENT PARAMETERS: read-out: GI
Each entry below carries its recorded inhibition of growth at 10 µM.
Just the number in %, nothing appended.

O=C(CNc1ccc(Cl)cc1)Nc1ccc(-c2nc3ccccc3s2)cc1 -16.2

-- ask Give the measured inhibition of growth at 10 µM of O=C(Cn1cnc2ccccc21)Nc1ccc(-c2nc3ccccc3s2)cc1 .
-- reply 12.6

-- ask For O=C(CN(c1ccccc1)c1ccccc1)Nc1ccc(-c2nc3ccccc3s2)cc1 , what is its reported inhibition of growth at 10 µM?
-- reply -5.28

-- ask inhibition of growth at 10 µM lookup needed for O=C(CN1CCOCC1)Nc1ccc(-c2nc3ccccc3s2)cc1 , thanks.
-- reply -6.41

-- ask Which inhibition of growth at 10 µM is reported for this molecule? O=C(CNc1c(Cl)cccc1Cl)Nc1ccc(-c2nc3ccccc3s2)cc1
-- reply -18.3

-- ask Param item = Cc1ccc(NCC(=O)Nc2ccc(-c3nc4ccccc4s3)cc2)cc1 ; retrieve measured inhibition of growth at 10 µM.
-- reply 3.62

-- ask Quick one: inhibition of growth at 10 µM of O=C(CNc1nnc(-c2ccc(Cl)cc2)o1)Nc1ccc(-c2nc3ccccc3s2)cc1 ?
-- reply -6.78

-- ask Sample Cc1cc(NCC(=O)Nc2ccc(-c3nc4ccccc4s3)cc2)no1 — what was its inhibition of growth at 10 µM?
-- reply -10.9

-- ask Please give the measured inhibition of growth at 10 µM for this molecule: O=C(Cn1c2ccccc2c2ccccc21)Nc1ccc(-c2nc3ccccc3s2)cc1
-- reply -0.99

-- ask Would you kindly share the measured inhibition of growth at 10 µM for COc1ccc(NCC(=O)Nc2ccc(-c3nc4ccccc4s3)cc2)cc1 ?
-- reply 14.6

-- ask Can you look up the measured inhibition of growth at 10 µM of O=C(CNc1nc2ccccc2s1)Nc1ccc(-c2nc3ccccc3s2)cc1 for me?
-- reply -4.25

-- ask // lookup inhibition of growth at 10 µM for O=C(CNCc1ccccc1)Nc1ccc(-c2nc3ccccc3s2)cc1
-- reply -6.53

-- ask Record request: inhibition of growth at 10 µM value, item NS(=O)(=O)c1ccc(NCC(=O)Nc2ccc(-c3nc4ccccc4s3)cc2)cc1
-- reply -17.8

-- ask Request the reported inhibition of growth at 10 µM associated with O=C(CNc1nc(-c2ccc(Cl)cc2)cs1)Nc1ccc(-c2nc3ccccc3s2)cc1
-- reply -6.21

-- ask Fill in the blank: the reported inhibition of growth at 10 µM of O=C(Cn1cncn1)Nc1ccc(-c2nc3ccccc3s2)cc1 is ____.
-- reply -2.28

-- ask Using the record for O=C(Cn1ccc2ccccc21)Nc1ccc(-c2nc3ccccc3s2)cc1 , report its inhibition of growth at 10 µM.
-- reply -3.42

-- ask I have this molecule here, Cc1cc(C)n(CC(=O)Nc2ccc(-c3nc4ccccc4s3)cc2)n1 , and I need its recorded inhibition of growth at 10 µM.
-- reply -5.06

-- ask I am curious: what inhibition of growth at 10 µM value has been reported for O=C(Cn1nnc2ccccc21)Nc1ccc(-c2nc3ccccc3s2)cc1 ?
-- reply -1.24
